# study_target: rat relaxin family peptide receptor 2 (RXFP2) (rat) (UniProt Q5ECL0)
# Sequence (Q5ECL0 entry or part of it): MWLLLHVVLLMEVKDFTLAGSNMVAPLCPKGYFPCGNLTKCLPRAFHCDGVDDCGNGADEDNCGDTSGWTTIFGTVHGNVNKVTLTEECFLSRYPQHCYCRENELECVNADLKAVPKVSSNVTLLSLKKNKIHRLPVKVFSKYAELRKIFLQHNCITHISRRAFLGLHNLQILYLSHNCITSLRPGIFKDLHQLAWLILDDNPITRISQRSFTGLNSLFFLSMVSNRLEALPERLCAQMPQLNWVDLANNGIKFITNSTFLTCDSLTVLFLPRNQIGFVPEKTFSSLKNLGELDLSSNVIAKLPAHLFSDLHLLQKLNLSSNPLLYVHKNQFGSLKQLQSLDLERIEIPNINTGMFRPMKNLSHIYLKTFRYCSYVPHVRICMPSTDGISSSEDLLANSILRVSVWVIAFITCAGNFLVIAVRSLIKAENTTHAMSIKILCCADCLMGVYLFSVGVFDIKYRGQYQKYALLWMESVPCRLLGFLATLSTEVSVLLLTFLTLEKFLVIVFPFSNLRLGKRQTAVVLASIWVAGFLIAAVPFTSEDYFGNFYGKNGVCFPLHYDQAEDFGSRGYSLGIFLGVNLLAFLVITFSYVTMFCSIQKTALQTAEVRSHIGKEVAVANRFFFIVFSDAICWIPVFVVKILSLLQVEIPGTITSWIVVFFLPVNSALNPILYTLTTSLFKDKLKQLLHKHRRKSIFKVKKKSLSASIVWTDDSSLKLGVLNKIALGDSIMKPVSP
quantity_name: IC50, INSL3-stimulated CYP11B1 mRNA in H295R stably expressing rat RXFP2 (nM)
Dear colleague, please return just the value in nM, with no unit written.

INSERT INTO results (binder, numeric_result) VALUES
  ('RXFP2 mAb 3F3 (antibody, V domains shown) VH: QVQLQQPGSVLVRPGASVKLSCKASGYIFTSYWMHWVKQRPGQGLEWIGEIYPNSGRTSYNEKFKGKATVTVDTSSSTAYVDLSSLTSEDSAVYYCASGGHWFAYWGQGTLVTVSA VL: DIQMTQSSSSFSVSLGDRVTITCKASEDIYNRLAWYQQKPGNAPRLLISGATSLEAGVPSRFSGSGSGKDYTLSITSLQTEDVSTYYCQQYWITPYTFGGGTKLEIK', 3.85),
  ('RXFP2 mAb 4H2 (antibody, V domains shown) VH: QVQLRQSGPSLVQPSQSLSITCTVSGFSLTNYGVHWVRQSPGKGLEWLGVIWRGGNTDHNAAFMSRLSITKDNSESQVFFKMNSLQVDDTAIYYCAKAEGYYALDYWGQGTSVTVYS VL: DIQMTQSPASLSVSVGETVTITCRASENIYSNLAWYQQKQGKSPQLLVYAVTNLADGVPSRFSGSGSGTQYSLKINSLQSEDFGSYYCQHFWGTPWTFGGGTKLEIK', 0.26);

Could you now look at the following binder, please?
GET /values?readout=IC50, INSL3-stimulated CYP11B1 mRNA in H295R stably expressing rat RXFP2&item= RXFP2 mAb 3H1 (antibody, V domains shown) VH: QVQLKETGPGLVAPSQSLSITCTVSGFSLTNYGVNWVRQPPGKGLEWLVVIWSDGSTNYNSALKSRLSISKDNSKSQVFLKMNSLQTDDTAMYYCARQQGYYAMDYWGQGTSVIVSS VL: DIQMTQSPASLSVSVGETVTITCRASENIYSNLAWYQQKQGKSPQLLVYAVTNLADGVPSRFSGSGSGTQYSLKINSLQSEDFGSYYCQHFWGPPYTFGGGTKLEIK 0.33
